System: NCI-H929 complex spheroids, viability % test/control
Assay: Anticancer human tumor NCI-H929 cell line growth inhibition [RAS];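 also: compound exposure lasted seven days before viability was read; 100% = DMSO vehicle control viability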
Conditions: second compound 0.03 µM; first compound 0.03 µM; hits give low values
Measured viability, T/C accompanies every entry in the list below.

[
  {
    "Compound": "CCc1c2c(nc3ccc(O)cc13)-c1cc3c(c(=O)n1C2)COC(=O)[C@]3(O)CC + CCn1c(-c2cc(N3CCN(C)CC3)cnc2C(C)OC)c2c3cc(ccc31)-c1csc(n1)CC(NC(=O)C1CC1C)C(=O)N1CCCC(N1)C(=O)OCC(C)(C)C2",
    "viability, T/C, %": 1.06
  },
  {
    "Compound": "CC1(C)CCC(Nc2ncc(C(F)(F)F)c(-c3c[nH]c4c(P(C)(C)=O)c(C#N)ccc34)n2)CN1 (centres undefined) + CCn1c(-c2cc(N3CCN(C)CC3)cnc2C(C)OC)c2c3cc(ccc31)-c1csc(n1)CC(NC(=O)C1CC1C)C(=O)N1CCCC(N1)C(=O)OCC(C)(C)C2",
    "viability, T/C, %": 2.43
  },
  {
    "Compound": "CCc1c2c(nc3ccc(O)cc13)-c1cc3c(c(=O)n1C2)COC(=O)[C@]3(O)CC + CCn1c(-c2cccnc2C(C)OC)c2c3cc(ccc31)N1CCOC(CC(NC(=O)C(C(C)C)N(C)C(=O)C3(F)CCN(C(=O)C#CC(C)(C)N(C)C)CC3)C(=O)N3CCCC(N3)C(=O)OCC(C)(C)C2)C1",
    "viability, T/C, %": 0.96
  },
  {
    "Compound": "CC1(C)CCC(Nc2ncc(C(F)(F)F)c(-c3c[nH]c4c(P(C)(C)=O)c(C#N)ccc34)n2)CN1 (centres undefined) + CCn1c(-c2cccnc2C(C)OC)c2c3cc(ccc31)N1CCOC(CC(NC(=O)C(C(C)C)N(C)C(=O)C3(F)CCN(C(=O)C#CC(C)(C)N(C)C)CC3)C(=O)N3CCCC(N3)C(=O)OCC(C)(C)C2)C1",
    "viability, T/C, %": 2.65
  }
]
